These measurements were taken from patent US10005846.

Target: T1, human transglutaminase type 2 (TG2) (human, UniProt P21980 1-687)
T1 construct: Recombinant full-length human TG2 (Zedira; cat; T002 in the Biacore work); Also used here for the endogenous TG2 of HepG2 lysate and HK-2 cells; also called hTG2; rhTG2
T1 sequence: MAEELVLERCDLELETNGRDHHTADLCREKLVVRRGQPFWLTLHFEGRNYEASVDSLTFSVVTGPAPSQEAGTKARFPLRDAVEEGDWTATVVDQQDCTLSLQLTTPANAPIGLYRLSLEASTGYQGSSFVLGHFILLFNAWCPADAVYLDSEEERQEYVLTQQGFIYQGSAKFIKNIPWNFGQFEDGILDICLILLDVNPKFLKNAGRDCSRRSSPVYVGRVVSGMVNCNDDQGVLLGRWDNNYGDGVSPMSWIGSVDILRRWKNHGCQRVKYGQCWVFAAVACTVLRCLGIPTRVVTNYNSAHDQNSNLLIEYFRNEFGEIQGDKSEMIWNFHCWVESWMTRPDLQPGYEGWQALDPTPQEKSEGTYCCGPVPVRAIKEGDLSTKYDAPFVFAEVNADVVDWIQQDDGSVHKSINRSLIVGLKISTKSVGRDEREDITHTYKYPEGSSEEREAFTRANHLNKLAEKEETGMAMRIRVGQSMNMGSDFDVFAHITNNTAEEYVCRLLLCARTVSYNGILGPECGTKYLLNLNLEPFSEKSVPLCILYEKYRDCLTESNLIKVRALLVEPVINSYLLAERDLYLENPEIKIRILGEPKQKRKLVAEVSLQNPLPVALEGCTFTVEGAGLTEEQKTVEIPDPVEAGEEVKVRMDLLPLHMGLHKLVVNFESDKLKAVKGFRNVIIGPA
Assay: SPR (Biacore T200), antibody captured on anti-human IgG1 Fc chip, TG2 injected; calcium condition not marked in the row
Please go through the items and note down their kon.
Give the quantity in M⁻¹ s⁻¹, number only.

hAB005 (hAB001AJ) humanised AB1 antibody (antibody, V domains shown, captured by anti-human IgG1 (Fc); also called Heavy Chain version RHA with Light Chain version RKJ) VH: EVQLLESGGGLVQPGGSLRLSCAASGFTFSSSAMSWVRQAPGKGLEWVSTISVGGGKTYYPDSVKGRFTISRDNSKNTLYLQMNSLRAEDTAVYYCAKLISLYWGQGTLVTVSS VL: DIQMTQSPSSLSASVGDRVTITCKASQDINSYLTWFQQKPGKAPKSLIYRTNRLFDGVPSRFSGSGSGTDFFLTISSLQPEDFATYYCLQYDDFPYTFGQGTKVEIK has a reported kon of 190000

cDC001 chimeric antibody (murine DC1 variable regions) (antibody, human IgG1, V domains shown, also called Chimeric DC1) VH: EVQLVESGGGLVKPGGSLKLSCAASGFTLSTHAMSWVRQTPEKRLEWVATISSGGRSTYYPDSVKGRFTISRDNVKNTLYLQLSSLRSEDTAVYFCARLISTYWGQGTTLTVSS VL: DITMTQSPSSIYASLGERVTITCKASQDINSYLTWFQQKPGKSPKILIYLVNRLVDGVPSRFSGSGSGQDYALTISSLEYEDMGIYYCLQYDDFPYTFGGGTKLEIK has a reported kon of 320000
